- Target or test system: T1, MHC class I molecule HLA-A*0201 (iTopia plate-bound monomer) (biotin (bound to streptavidin-coated plate))
- T1 construct: also called A2
- Experiment notes: iTopia off-rate assay, 37 C; fit R^2 0.98
Endpoint label: t½ half life

NLTEVPTDL (also called Peptide No 41) [5T4 9-mer peptide 41 NLTEVPTDL] = 1.4 h
SSAPFLASA (also called Peptide No 22) [5T4 9-mer peptide 22 SSAPFLASA] = 1.3 h
NLFLTGNQL (also called Peptide No 48) [5T4 9-mer peptide 48 NLFLTGNQL] = 0.5 h

Now for a further binder.
# t½ half life (binder: GAFARRPPL (also called Peptide No 55) [5T4 9-mer peptide 55 GAFARRPPL] ) is 1.9 h
